// data source = ChEMBL document CHEMBL1153048

Assay: AUC (0 to 8 hrs) in C57BL/6J mouse at 5 mg/kg, iv measured up to 8 hrs
Assay type: ADME, organism-based
Set-up: time < 8 hr, dose 5 mg/kg, route intravenous
Conditions: plasma
readout kind: AUC(0-t) at 8 h (ng·h/mL)

A = COc1ccc(/C=C/C(=O)Nc2ncc(Cc3cccc(C(F)(F)F)c3)s2)cc1
B = COc1cc(C(=O)Nc2ncc(Cc3cccc(C(F)(F)F)c3)s2)ccc1OCCO
Request: Hi, I'm comparing two records. Which one has the lower AUC(0-t) at 8 h, A or B ? I would appreciate it if you answered with the label of your choice.
Result: A
(A: 2700 ng·h/mL, B: 24000 ng·h/mL)
